- targetOfAssay: PPARα receptor (GST-hPPARα LBD) (Homo sapiens, UniProt Q07869)
- Sequence (Q07869 167-468): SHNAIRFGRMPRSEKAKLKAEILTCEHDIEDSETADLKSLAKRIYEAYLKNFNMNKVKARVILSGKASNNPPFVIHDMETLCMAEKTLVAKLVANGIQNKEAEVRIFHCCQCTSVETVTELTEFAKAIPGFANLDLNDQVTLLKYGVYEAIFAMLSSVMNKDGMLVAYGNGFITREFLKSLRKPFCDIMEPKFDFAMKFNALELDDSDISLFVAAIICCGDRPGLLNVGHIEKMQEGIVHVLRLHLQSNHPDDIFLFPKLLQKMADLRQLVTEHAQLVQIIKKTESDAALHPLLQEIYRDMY
- assayText: PPARα functional binding assay (CARLA, TR-FRET)
- studyConditions: TR-FRET coactivator (SRC-1) recruitment
pEC50: −log10 of the molar value.
readout: pEC50

Study these solved cases before continuing.
>>> testvalue("Cc1oc(-c2ccccc2)nc1COc1ccc(S(=O)(=O)N2CCC[C@@H]2C(=O)O)cc1")
"~8.15"
>>> testvalue("Cc1oc(-c2ccccc2)nc1COc1ccc(S(=O)(=O)N2CC[C@@H]2C(=O)O)cc1")
"~8.52"

Continue with the compound presented below.
Recorded pEC50 of `CCCc1cc(Oc2ccccc2)ccc1OCCCOc1ccc(S(=O)(=O)N2c3ccccc3C[C@@H]2C(=O)O)cc1` , please.
~7.57
